Source of measurements: patent US9034918B2

- System: Enterobacter aerogenes (9004)
- ASSAY_SUMMARY: Antibiogram by diffusion technique (CA-SFM 2008); note: key: sensitive (S): strains for which the MIC of the antibiotic tested is less than or equal to the lower critical concentration c; resistant (R): strains for which the MIC of the antibiotic tested are greater than the upper critical concentration C; intermediate sensitivity (I): strains for which the MIC of the antibiotic tested and the corresponding diameter are between the two critical concentrations and the two critical diameters
- Format: cell-based
- ASSAY_CONTEXT: strain 9004
READOUT: Category

| COMPOUND | SYSTEM_NAME | READOUT | RESULT_VALUE |
| --- | --- | --- | --- |
| NCC[C@H](O)C(=O)N[C@@H]1C[C@H](N)[C@@H](O[C@H]2O[C@H](CN)[C@@H](O)[C@H](O)[C@H]2O)[C@H](O)[C@H]1O[C@H]1O[C@H](CO)[C@@H](O)[C@H](N)[C@H]1O | Enterobacter aerogenes (9004) | Category | I |
| CC(C)(O/N=C(\C(=O)N[C@@H]1C(=O)N2C(C(=O)[O-])=C(C[n+]3ccccc3)CS[C@H]12)c1csc(N)n1)C(=O)O | Enterobacter aerogenes (9004) | Category | R |
| CC1(C)S[C@@H]2[C@H](NC(=O)[C@H](C(=O)O)c3ccsc3)C(=O)N2[C@H]1C(=O)O | Enterobacter aerogenes (9004) | Category | R |
| NC[C@H]1O[C@H](O[C@H]2[C@H](O)[C@@H](O[C@H]3O[C@H](CO)[C@@H](O)[C@H](N)[C@H]3O)[C@H](N)C[C@@H]2N)[C@H](N)C[C@@H]1O | Enterobacter aerogenes (9004) | Category | R |
| C[C@@H](O)[C@H]1C(=O)N2C(C(=O)O)=C(S[C@@H]3CN[C@H](C(=O)Nc4cccc(C(=O)O)c4)C3)[C@H](C)[C@H]12 | Enterobacter aerogenes (9004) | Category | S |
| CC1(C)S[C@@H]2[C@H](NC(=O)[C@H](N)c3ccc(O)cc3)C(=O)N2[C@H]1C(=O)O | Enterobacter aerogenes (9004) | Category | R |
| CO/N=C(\C(=O)N[C@@H]1C(=O)N2C(C(=O)O)=C(COC(C)=O)CS[C@H]12)c1csc(N)n1 | Enterobacter aerogenes (9004) | Category | R |
| CCn1cc(C(=O)O)c(=O)c2cc(F)c(N3CCNCC3)cc21 | Enterobacter aerogenes (9004) | Category | R |
| CO/N=C(\C(=O)N[C@@H]1C(=O)N2C(C(=O)[O-])=C(C[N+]3(C)CCCC3)CS[C@H]12)c1csc(N)n1 [Cefepime] | Enterobacter aerogenes (9004) | Category | R |
| CC(=O)OCC1=C(C(=O)O)N2C(=O)[C@@H](NC(=O)Cc3cccs3)[C@H]2SC1 | Enterobacter aerogenes (9004) | Category | R |
| C[C@@H](O)[C@H]1C(=O)N2C(C(=O)O)=C(SCCN=CN)C[C@H]12 | Enterobacter aerogenes (9004) | Category | S |
